Quick list: growth per entry.
# Test system: PC-3 prostate
# method: NCI-60 one-dose screen, 48 h (100 = growth as untreated, 0 = no growth, -100 = all killed)
# details: 10 µM unless noted
This is part of a sample that, as a whole, favours compounds with a hit. Of some 83,000 tested, about 20% had one in any assay.
measureName: growth (%)

molecule=CCOC(=O)c1noc2c1CCc1cn(Cc3cc(OC)cc(OC)c3)cc1-2 measurename=growth value=92.8
molecule=COc1cc(/C=C/C(=O)c2ccc(Oc3ncnc4ccccc34)cc2)cc(OC)c1OC measurename=growth value=75.6
molecule="COC(OC)C1(c2ccccc2)NC(=O)NC1=O (stereo not given)" measurename=growth value=103
molecule=O=C1COc2ccccc2C(=O)N1CCCCNc1ccccc1 measurename=growth value=47.2
molecule=Cc1nc(N)nc(SCc2ccccc2)c1Br measurename=growth value=83.8
molecule=CCCCOc1nc2ccc(Cl)cc2cc1/C=C/C(=O)/C=C/c1ccc(OC)cc1 measurename=growth value=88.9
molecule="O=C(c1cc(-c2ccc(Cl)cc2)nc2ccccc12)N1N=C(c2ccccc2)CC1c1cc(-c2ccccc2)nn1-c1ccccc1 (stereo not given)" measurename=growth value=71.3
molecule=COc1ccc(-c2nn(-c3ccc(NC(=O)c4ccc(Cl)c(C(F)(F)F)c4)cc3)cc2-c2ccncc2)cc1Cl measurename=growth value=23.2
molecule=CCN(CC)CCN1C(=O)c2c(c3c4ccccc4[nH]c3c3[nH]c4ccccc4c23)C1=O measurename=growth value=82.5
molecule=O=C(NCCNc1nccc(-c2c(-c3cccc(O)c3)nc3sccn23)n1)c1cc(N2CCOCC2)cc(C(F)(F)F)c1 measurename=growth value=78.2
molecule=COc1ccc(NC(=O)COCCOCCNC[C@@H]2C(=O)O[C@H]3[C@H]2CC/C(COC(=O)OC/C2=C/CC[C@@]4(C)O[C@H]4[C@H]4OC(=O)[C@@H](CN(C)C)[C@@H]4CC2)=C\CC[C@@]2(C)O[C@@H]32)c(O)c1C(N)=O measurename=growth value=80.2
molecule=COc1ccc(-c2nn(-c3ccc(NC(=O)c4cc(Cl)cc(Cl)c4)cc3)cc2-c2ccncc2)cc1Cl measurename=growth value=47.9
molecule=Cc1ccc(=O)n(-c2ccc(Br)cc2F)c1 measurename=growth value=91.4
molecule=COc1cc2nc(C(=O)N3CCCCC3)cc(Nc3ccccc3)c2cc1OC measurename=growth value=114
molecule=S=c1[nH]nc(Cn2c3ccccc3c3ccncc32)o1 measurename=growth value=99.4
molecule=CCCc1nn2c(CCC(=O)c3nc4ccc([N+](=O)[O-])cc4[nH]3)nnc2s1 measurename=growth value=100
molecule=Cc1cc[n+](CCCC[n+]2ccc(C)cc2)cc1 measurename=growth value=88.7
molecule=O=[N+]([O-])c1ccccc1NC1c2ccccc2Oc2ccccc21 measurename=growth value=56.1
molecule="CC(CN(C)C)CN1c2ccccc2CCc2ccccc21 (stereo not given)" measurename=growth value=66.7
molecule=Fc1cccc(F)c1C#Cc1ccc2cccnc2c1 measurename=growth value=86.1
